Where do the numbers come from? From patent US20230080224A1.

// values below are reported Kd
testedTarget: T1, human ALPPL2 (recombinant protein) (human, UniProt P10696 20-503)
T1 chain: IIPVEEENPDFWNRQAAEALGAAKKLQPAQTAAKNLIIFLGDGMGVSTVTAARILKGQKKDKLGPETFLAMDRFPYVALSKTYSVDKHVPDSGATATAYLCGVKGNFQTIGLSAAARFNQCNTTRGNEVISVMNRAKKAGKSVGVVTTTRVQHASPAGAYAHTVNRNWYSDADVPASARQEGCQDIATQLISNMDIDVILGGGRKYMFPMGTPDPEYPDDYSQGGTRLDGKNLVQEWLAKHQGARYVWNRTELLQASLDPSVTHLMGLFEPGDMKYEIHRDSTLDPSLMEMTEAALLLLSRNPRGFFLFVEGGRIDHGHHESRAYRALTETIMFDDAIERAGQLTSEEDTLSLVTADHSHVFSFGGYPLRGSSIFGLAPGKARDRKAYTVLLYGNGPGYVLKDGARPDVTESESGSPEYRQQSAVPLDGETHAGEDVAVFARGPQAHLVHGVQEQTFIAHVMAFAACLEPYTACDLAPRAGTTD
testDescription: BLI; single concentration
Report only the number, with the unit nM understood.

binder | Kd [nM]
AB1C31 (antibody, V domains shown, Rabbit antibody cloned from a single B cell) VH: QSLEESGGDLVKPGASLTLTCTASGFDFSSNGMCWVRQAPGKGLEWIACIYVDSSDNTNYASWVNGRFTISRTSSTTVDLKMTSLTAADTATYFCARGYGYVGSAMDLWGQGTLVTVSS VL: DIVMTQTPASVEAAVGGTVTIKCQASQSISNELSWYQQKPGQRPKLLIYGASTLESGVPSRFSGSGSGTEFTLTISDLECADAATYYCQSAYYSSSSSYANTFGGGTEVVVK | 0.4

// recorded Kd for AB1C4 (antibody, V domains shown, Rabbit antibody cloned from a single B cell; also called rabbit C4) VH: QSLEESGGDLVKPGPSLTLTCKASGFTISNNYWICWVRQAPGKGLEWIGCIATGDGSTYYASWAKGRFTISKTSSTTVTLQMTSLTAADTATYFCARGAAGSSWTTYFDFWGPGTPVTVSS VL: DIVMTQTPASVEAAVGGTVTIKCQAGQNIDNYLSWYQQKPGQPPKLLIYRASTLASGVPSRFKGSGSGTEFTLTISDLECADAATYYCQNNNGGSTFTGFPFGGGTEVVVK : 0.001
